- Run Description: folding stability dG unfold from chymotrypsin proteolysis; higher = more stable
Measure: folding stability dG unfold (kcal/mol)

INSERT INTO measurements (seq_string, measure, endpoint_value) VALUES
  ('KKKILIFITGDNPELAERIRKELEELGYDVEVKVVTTPEEMEKAIEEAEKTDIVIVIHLPPALPLSPELAFS [r1_497_TrMRF]', 'folding stability dG unfold', 0.709),
  ('SAGGSAGGSAGGSPDGWKFKMEMFTVKVPGAKITIPDGKSITLPPGKEVTIMIMTYVPPSAGGSAGGSAGGS [r4_26_TrROS]', 'folding stability dG unfold', 3.81),
  ('SAGGMKLPENAKVVKKIEIKDEKTGKTFKATIVKNKDGSLYIFIEKDGKIYKFKIENGKIKMEEIPPSAGGS [r16_711_TrROS_Hall]', 'folding stability dG unfold', 4.37),
  ('SAGGSAGGSAGGMEKVTEVKPVATLPNGTVVTETLVTYTAPNGPEIGEEVVLTEDPVPKSAGGSAGGSAGGS [r10_941_JUSTAS]', 'folding stability dG unfold', -0.408),
  ('SAGGSAGGSAKMIIRIRNKNGKIIELTLEEVAKKLGLSKEEMTAEEILKKLKENIEKVEILPSAGGSAGGSA [r18_403_TrROS_Hall]', 'folding stability dG unfold', 3.18),
  ('SAGGNPSASPVVTETELPDGSRVTTTTYPSGTTTRTVTDLVTGKKTLVTTTTTPGTGATTTTTTPVPPSAGG [r13_822_JUSTAS]', 'folding stability dG unfold', 1.51),
  ('SAAEIDEDGTIRIVLSEEAVKNMSEEELKALAEELAKLLPPGAKVEIKIVKPKPVKEEKKLYDKDGKEVSAG [r14_312_TrROS_Hall]', 'folding stability dG unfold', 0.0971);

----------
- Run Description: folding stability dG unfold (combined trypsin and chymotrypsin); higher = more stable
# if value of folding stability dG unfold reaches 10 kJ/mol, tag 1; if it stays below, tag -1

INSERT INTO measurements (seq_string, qualitative_label) VALUES
  ('SAGGLPELLKALGLPVTSVRSVPVLLPGGRPALVTFVEFEDPEGERYRLVVVRLPNGEVLVRVERLDPSAGG [r13_818_TrMRF]', 1),
  ('SAGGSAGGSAGGSGNPVVRVFEFDDYIAVVTFNPGDGSVEVLSVGKVPPAAIPGSPELSSAGGSAGGSAGGS [r4_21_TrMRF]', -1),
  ('SAGGSAGGSAGSMVLESEEPIPETGEPVLVKTTLSEEPGRERTIVTTYRDGKPLSTTVELSAGGSAGGSAGG [r11_631_JUSTAS]', -1),
  ('MTKKTVTLPIPEPIRAAIEAGKPLPLEEIVDLVRDVVAKELGFKDVKVLSVEIKPLPNGEIVVEVTVEFPES [r1_290_TrMRF]', 1),
  ('SAGGMTTTTTFDGPTDEAFDLPSGVKVEPEPATGGYRVELPPGREVEVTVERSTDPGTVTWTFTFKESAGGS [r16_122_JUSTAS]', -1),
  ('SAGGSAGGSAGGNKIVIPFEELEEARENGDPHKARKLVRERGMDPEDVTIEIITPEALKESAGGSAGGSAGG [r7_7_TrROS]', -1),
  ('SAGGEFEVYRVKSPDSVVTVTVLPDRVVVNLTDEKNPKVVPIPYPPGHPPTLEDVLALLKSLGFKVEPSAGG [r13_687_TrMRF]', -1),
  ('SAGGSAGGSAGVFWRIRMPGHTIPIPIEGDLNEAKDYIRDEMREHHGEPIDPDNIEIEIVSAGGSAGGSAGG [r11_1028_TrROS]', -1),
  ('SAGGSAGGSAGGSMTVTVTLKDGSTRTFAVPADAPLTLEQLEAAGYPAADIAEVTVTAESAGGSAGGSAGGS [r10_565_JUSTAS]', 1),
  ('SAGGSAGGSAWIVIPAEDIKENLDEIEFRNGDGQEYRIKVDVQEHGDRPYVMIDIVPPGQPISAGGSAGGSA [r18_447_TrROS]', -1),
  ('SMKKIVLIYPESVSPEEAEKIAEEILKKLGLKKGSPVTILPLSEYESNPEMRARIEEAKKKGADIIIEVKSA [r9_1147_JUSTAS]', 1),
  ('SAGPKNAKPIGTVRIRNPNGRKINIMQWPNPIMVHIKPPDGKKREVPIRGAPMEEILDELAEDGWEVEPSAG [r5_613_TrROS]', -1),
  ('SAGGSAGGSLEKIKEALKKAGYPPENVVIEVKTLPNGEIVITVKYNGKEIPKEIVEEAIKKLKSAGGSAGGS [r12_175_JUSTAS]', 1),
  ('SAGGSAGGSSAPPGEVRTEAVSLTVRSTVPITYPNSPTTTLSLTTTLTVTLTREVSPVRPEVESAGGSAGGS [r20_14_JUSTAS]', 1);

----------
- Run Description: folding stability dG unfold (combined trypsin and chymotrypsin); higher = more stable
Measure: folding stability dG unfold (kcal/mol)

INSERT INTO measurements (seq_string, value_qualifier, endpoint_value) VALUES
  ('SAGGSAGGSAGMKIKFPNGKVVEIHMDEDSGNIEIEFPDGKKKEINIPGMSIDDILDYLKSAGGSAGGSAGG [r11_729_TrROS]', '=', 1.59),
  ('SAGGSAGGSAGKTVQIWIPPDEITPEALKSLAREGWKIKPIEIRRNPEDGWISITIELKPSAGGSAGGSAGG [r11_345_TrROS]', '=', 0.619),
  ('SAGGMKTVVTTEPATFDATDPNTGVPIGTVTIGPVVTTKPPNAVTTHYTFRIGGTEVATSTTTNPGLASAGG [r13_758_JUSTAS]', '<', -1),
  ('SAGMIKVEVVEKDEKTKEWKVVETKTIPVKPGEKPTVEELAKKLKEKGYEVRIEKTKDGTLKIYVIKKKSAG [r5_269_TrROS_Hall]', '=', 3.78),
  ('SKIKIEVDEETGVITVTVEVDNLSEEEILDKLKEELEKLGFEVEVKVVKIEEVNGKVVVTVEIKIKPEKLSA [r9_347_TrROS_Hall]', '=', 1.45),
  ('SAGDNMYKYDYENPWYGIKIEVWVSPNGQIVSIKVKIEKVPPVPPKPPIDPEDMVPDPDGKYRSPNDLDSAG [r5_685_TrROS]', '=', 1.95),
  ('SAGGSAGGSMEELPEGAELIREEDGVAVVRNENGELLVVRRVDGKLEVRRFPPGMSIEEALAKSAGGSAGGS [r12_605_TrROS_Hall]', '=', 3.05);

----------
- Run Description: folding stability dG unfold from chymotrypsin proteolysis; higher = more stable
Measure: folding stability dG unfold (kcal/mol)

INSERT INTO assay_data (seq_string, measure, endpoint_value) VALUES
  ('SAGGSAGGSAGGEEVTIVVKSKEDIEALLPPGWKVTKIEEIYVDKETGEKYYKITVKKESAGGSAGGSAGGS [r10_256_TrROS_Hall]', 'folding stability dG unfold', 3.88),
  ('SAGGSAGPPKPGKIELEFEDPSGGKKYKVDIYIYPNNEVKTKALNPDGTPIPEEEIKKILKKLGLKSAGGSA [r15_872_JUSTAS]', 'folding stability dG unfold', 1.75),
  ('SMSIELDAESIEEIADFLKKAIEDGNPDAKIRIELYPLGGEREEREYDSIDEIIAELKKGPARIRIELEPSA [r9_589_TrMRF]', 'folding stability dG unfold', 2.29),
  ('SAGGSAGGMKEITITNENGETLRIKVFNKETGEEKEIEFPAGMSLEDILKKLKEEEGLEVEIEPSAGGSAGG [r6_202_TrROS_Hall]', 'folding stability dG unfold', 3.16),
  ('SAGGSAALVLSREEFDGEVLLTLRDPETGEELLARLTYVPEENLVRLETTFPDGSTTTSVLPASALSAGGSA [r15_1055_JUSTAS]', 'folding stability dG unfold', 1.59),
  ('SAGGSAGGSANWKEIDGTLPWGLRVKVWVSPGNGQLMIEIKPVPPPPPPKISPEDADKANADSAGGSAGGSA [r18_236_TrROS]', 'folding stability dG unfold', 4.06),
  ('SAGGSAGGSAMRLEIELENGLKIEIELEVNEDGELKMKIKIEPLPPVPEVVVTKVVKLEEESAGGSAGGSAG [r3_15_TrROS_Hall]', 'folding stability dG unfold', 1.69);

----------
- Run Description: folding stability dG unfold from trypsin proteolysis; higher = more stable
# if value of folding stability dG unfold reaches 0.5 kcal/mol, tag 1; if it stays below, tag -1

INSERT INTO measurements (seq_string, qualitative_label) VALUES
  ('SASKGSSMITVELTVTVPPSVSIEEVKKQFEEEFPKDAEIKVEATPVTVPANGTPVTTIKVTVTITKKESAG [r14_633_JUSTAS]', 1),
  ('SAKMSPEMRELVERLQDLYNENGYKVKIEMSNKPGMIRINVQMPNPRKKRKIKEALRGDGFPITRVEIYSAG [r14_284_TrROS]', 1),
  ('SAGGSAGGSAGGPDWRMISIPITFRFYVMEYDGGKPKKAEPIHEHPIPIMIMFPPDALKSAGGSAGGSAGGS [r10_492_TrROS]', 1),
  ('SAGGSAGGSAGGEEPVTFMVRIPIRRRDPDGNPEPVAEIDINVTMPPEDAERIIKELIKSAGGSAGGSAGGS [r10_574_TrROS]', -1),
  ('SAGGMPVTLEIVLPNLHDVLGPEFFDALKNITVPNGTPIKKITVKPIGDKTVILIEVDSPEDAKDILGSAGG [r13_269_TrMRF]', 1),
  ('SAGGSASMTIVPVKSEEELEAYIKTKNPKVFLLPLPDGTELVVKVNVDDPSKIEKVSLSKPEEILLSAGGSA [r15_11_JUSTAS]', -1);

Origin of the recorded values: the supplement of paper PMC12764529
